// values below are reported logP[b]
Assay: log P by HPLC (OECD Guideline 117), method [b] neutral range
Assay type: physicochemical
Details: HPLC, method [b] neutral range
Could you keep your reply to the number by itself?

Consider the following illustrative entries.
[[record]]
compound = "COc1nn(-c2cc([S+]([O-])CC(F)(F)F)c(C)cc2F)c(=O)n1CC(F)(F)F (centres unmarked) [Example 415]"
observed_result = 2.45

[[record]]
compound = "COc1nn(-c2cc([S+]([O-])CC(F)(F)F)c(Br)cc2F)c(=O)n1C1CC1 (centres unmarked) [Example 172]"
observed_result = 2.53

[[record]]
compound = "Cc1cc(F)c(-n2nc(-c3cccc(F)c3)n(C3CC3)c2=O)cc1SCC(F)(F)F [Example 69]"
observed_result = 3.89


Q: Entry Cc1ccc(-n2nc(OC(C)(C)C)n(C)c2=O)cc1SCC(F)(F)F [Example 154] has what logP[b]?
Result: 4.45

Q: Entry Cc1cc(F)c(-n2nc(OCC(Cl)(Cl)Cl)n(C)c2=O)cc1[S+]([O-])CC(F)(F)F (centres unmarked) [Example 392] has what logP[b]?
Result: 3.09

Q: Entry Cc1cc(F)c(-n2nc(OCc3ccccc3)n(C3CC3)c2=O)cc1[S+]([O-])CC(F)(F)F (centres unmarked) [Example 414] has what logP[b]?
Result: 3.19

Q: Entry Cc1cc(F)c(-n2nc(C)n(N)c2=O)cc1SCC(F)(F)F [Example 200] has what logP[b]?
Result: 2.13

Q: Entry Cc1cc(F)c(-n2ncn(C(C)(C)C)c2=O)cc1[S+]([O-])CC(F)(F)F (centres unmarked) [Example 369] has what logP[b]?
Result: 2.16

* * *

Experiment: log P by HPLC (OECD Guideline 117), method [a] acidic range
Format: physicochemical
Settings: reversed-phase C18 HPLC column, pH 2.7, HPLC, acidic range, pH 2.7; read-out: log P[a]
// values below are reported chromatographic logP
Could you keep your reply to the number by itself?

Q: Entry COc1nn(-c2ccc(C(F)(F)F)c([S+]([O-])CC(F)(F)F)c2)c(=O)n1C (centres unmarked) [Example 96] has what chromatographic logP?
Result: 2.89

Q: Entry COC1=CC(=O)N(c2cc(SCC(F)(F)F)c(C)cc2F)C1 [Example 310] has what chromatographic logP?
Result: 2.87

Q: Entry COC(=O)c1nn(-c2cc(SSc3cc(-n4nc(C(=O)OC)n(C(C)C)c4=O)c(F)cc3C)c(C)cc2F)c(=O)n1C(C)C [XXVIII-1] has what chromatographic logP?
Result: 4.11

* * *

Assay: log P by HPLC (OECD Guideline 117), method [b] neutral range
Assay type: physicochemical
Conditions: HPLC, method [b] neutral range
Threshold check on logP[b]: strictly below 3 is Criterion met; on or above 3 is Criterion not met.

Below, 5 compounds whose answers are already recorded.
[[record]]
compound = "C=C(C)CCOc1nn(-c2cc([S+]([O-])CC(F)(F)F)c(C)cc2F)c(=O)n1C1CC1 (stereo not drawn) [Example 137]"
class_name = "Criterion not met"

[[record]]
compound = "CC(C)(C)COc1nn(-c2cc([S+]([O-])CC(F)(F)F)c(Cl)cc2F)c(=O)n1C1CC1 (stereo not drawn) [Example 402]"
class_name = "Criterion not met"

[[record]]
compound = "CCn1c(C(F)(F)F)nn(-c2cc(SCC(F)(F)F)c(C)cc2F)c1=O [Example 57]"
class_name = "Criterion not met"

[[record]]
compound = "CNn1c(C2CC2)nn(-c2cc([S+]([O-])CC(F)(F)F)c(C)cc2F)c1=O (stereo not drawn) [Example 208]"
class_name = "Criterion met"

[[record]]
compound = "CCn1c(C(F)(F)F)nn(-c2ccc(C)c(SCC(F)(F)F)c2)c1=O [Example 54]"
class_name = "Criterion not met"


Q: Given the entry Cc1cc(F)c(-n2nnn(CC(F)(F)C(F)(F)F)c2=O)cc1SCC(F)(F)F [Example 444] , would its reported logP[b] be below 3?
Result: Criterion not met

Q: Given the entry Cc1cc(F)c(-n2nc(C3CCCCC3)n(C3CC3)c2=S)cc1SCC(F)(F)F [Example 496] , would its reported logP[b] be below 3?
Result: Criterion not met

Q: Given the entry Cc1cc(F)c(-n2nc(C(F)(F)F)n(N(C)C)c2=O)cc1SCC(F)(F)F [Example 214] , would its reported logP[b] be below 3?
Result: Criterion not met

Q: Given the entry Cc1cc(F)c(-n2nc(N(C)C)n(C)c2=O)cc1SCC(F)(F)F [Example 190] , would its reported logP[b] be below 3?
Result: Criterion met

Q: Given the entry Cc1cc(F)c(-n2nc(C3CC3)oc2=O)cc1SCC(F)(F)F [Example 456] , would its reported logP[b] be below 3?
Result: Criterion not met

Q: Given the entry CCSc1nn(-c2cc([S+]([O-])CC(F)(F)F)c(C)cc2F)c(=O)n1C1CC1 (stereo not drawn) [Example 262] , would its reported logP[b] be below 3?
Result: Criterion met

Q: Given the entry COCc1nn(-c2cc(SCC(F)(F)F)c(C)cc2F)c(=O)o1 [Example 450] , would its reported logP[b] be below 3?
Result: Criterion not met

Q: Given the entry COc1nn(-c2cc([S+]([O-])CC(F)(F)F)c(C)cc2F)c(=O)n1C1CC1 (single isomer, unassigned) [Example 380] , would its reported logP[b] be below 3?
Result: Criterion met

Q: Given the entry Cc1ccc(-n2nc(OC3CCOC3)n(C)c2=O)cc1SCC(F)(F)F (stereo not drawn) [Example 156] , would its reported logP[b] be below 3?
Result: Criterion not met

Q: Given the entry Cc1cc(F)c(-n2nc(SC(F)(F)F)n(C3CC3)c2=O)cc1SCC(F)(F)F [Example 263] , would its reported logP[b] be below 3?
Result: Criterion not met

Q: Given the entry CCOCc1nn(-c2cc(SCC(F)(F)F)c(C)cc2F)c(=S)n1C1CC1 [Example 500] , would its reported logP[b] be below 3?
Result: Criterion not met

Q: Given the entry CSc1nn(-c2cc([S+]([O-])CC(F)(F)F)c(C)cc2F)c(=O)n1C1CC1 (stereo not drawn) [Example 257] , would its reported logP[b] be below 3?
Result: Criterion met

Q: Given the entry Cc1cc(F)c(-n2nc(C(F)(F)F)n(C(C)(C)C)c2=O)cc1SCC(F)(F)F [Example 67] , would its reported logP[b] be below 3?
Result: Criterion not met

Q: Given the entry COCCc1nn(-c2cc([S+]([O-])CC(F)(F)F)c(C)cc2F)c(=O)n1C1CC1 (racemic) [Example 76] , would its reported logP[b] be below 3?
Result: Criterion met

Q: Given the entry COc1nn(-c2cc(SCC(F)(F)F)c(Br)cc2F)c(=O)n1C1CC1 [Example 173] , would its reported logP[b] be below 3?
Result: Criterion not met

Q: Given the entry Cc1cc(F)c(-n2nc(N(C)C)n(C3CC3)c2=O)cc1SCC(F)(F)F [Example 193] , would its reported logP[b] be below 3?
Result: Criterion not met

Q: Given the entry Cc1cc(F)c(-n2nc(C3CC3)n(N)c2=O)cc1SCC(F)(F)F [Example 196] , would its reported logP[b] be below 3?
Result: Criterion met

Q: Given the entry Cc1cc(F)c(-n2nc(OCC(F)(F)F)n(C)c2=O)cc1[S+]([O-])CC(F)(F)F (stereo not drawn) [Example 160] , would its reported logP[b] be below 3?
Result: Criterion met

Q: Given the entry Cc1cc(F)c(-n2nc(N(C)C)n(C3CC3)c2=O)cc1[S+]([O-])CC(F)(F)F (racemic) [Example 194] , would its reported logP[b] be below 3?
Result: Criterion met

Q: Given the entry Cc1cc(F)c(-n2nc(Br)n(Cc3ccccc3)c2=O)cc1SCC(F)(F)F [Example 440] , would its reported logP[b] be below 3?
Result: Criterion not met

Q: Given the entry COc1nn(-c2cc([S+]([O-])CC(F)(F)F)c(Cl)cc2F)c(=O)n1C (stereo not drawn) [Example 98] , would its reported logP[b] be below 3?
Result: Criterion met

* * *

Assay: log P by HPLC (OECD Guideline 117), method [b] neutral range
Assay type: physicochemical
Details: HPLC, method [b] neutral range
MEASURED PROPERTY: logP[b]
Could you keep your reply to the number by itself?

[[record]]
compound = "Cc1cc(F)c(-n2nc(C(C)C)n(C3CC3)c2=S)cc1SCC(F)(F)F"
observed_result = 4.02

[[record]]
compound = "CC=Cc1nn(-c2cc(SCC(F)(F)F)c(C)cc2F)c(=O)n1C1CC1"
observed_result = 3.49


Q: Entry COCc1nn(-c2cc([S+]([O-])CC(F)(F)F)c(C)cc2F)c(=O)o1 (racemic) has what logP[b]?
Result: 2.10

Q: Entry CC(CC(C)C)=Nn1c(C)nn(-c2cc(SCC(F)(F)F)c(C)cc2F)c1=O has what logP[b]?
Result: 3.98

Q: Entry Cc1cc(F)c(-n2nc(C(C)C)n(N)c2=O)cc1S(=O)(=O)CC(F)(F)F has what logP[b]?
Result: 2.21
